molecular target: Bcat-Halo (UniProt P35222); assay: NanoBRET Abs IC50, HEK293 cells, B-cat-Halo/TCF4-Luc; competitor TCF4-Luc
Sequence (P35222 whole entry): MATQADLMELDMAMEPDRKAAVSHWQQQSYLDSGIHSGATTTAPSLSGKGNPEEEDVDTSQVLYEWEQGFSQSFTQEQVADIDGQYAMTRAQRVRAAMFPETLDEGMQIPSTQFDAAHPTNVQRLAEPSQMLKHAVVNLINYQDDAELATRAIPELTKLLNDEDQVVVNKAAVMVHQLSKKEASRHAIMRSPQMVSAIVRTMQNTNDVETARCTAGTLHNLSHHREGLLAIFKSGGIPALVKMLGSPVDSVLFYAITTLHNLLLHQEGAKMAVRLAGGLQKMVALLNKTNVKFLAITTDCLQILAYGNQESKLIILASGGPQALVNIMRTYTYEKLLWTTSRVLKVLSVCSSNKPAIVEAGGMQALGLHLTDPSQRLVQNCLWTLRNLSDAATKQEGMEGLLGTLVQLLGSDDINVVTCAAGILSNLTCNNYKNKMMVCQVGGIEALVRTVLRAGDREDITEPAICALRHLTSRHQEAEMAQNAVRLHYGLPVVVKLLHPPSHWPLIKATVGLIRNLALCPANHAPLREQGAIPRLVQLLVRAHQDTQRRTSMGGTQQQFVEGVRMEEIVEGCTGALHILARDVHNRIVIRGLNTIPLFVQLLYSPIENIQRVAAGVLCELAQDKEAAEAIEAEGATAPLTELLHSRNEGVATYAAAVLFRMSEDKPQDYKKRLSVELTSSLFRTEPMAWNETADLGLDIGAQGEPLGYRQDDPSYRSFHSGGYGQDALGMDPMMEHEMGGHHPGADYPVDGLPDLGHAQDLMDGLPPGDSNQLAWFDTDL
pIC50: −log10 of the molar value. Starred links: 1 amine or outer side, 2 acyl side, 3 side chain; linkers in the order of their positions; H or OH if unused. Positions of bridges follow the written chain, without caps; N, C: chain ends. Non-standard residues stand in square brackets, D forms with d. Primed or numbered codes have the meaning given here. PyrS2″ = (S)-3-amino-1-((pent-4-en-1-yloxy)carbonyl)pyrrolidine-3-carboxylic acid (stapling residue), C=CCCCOC(=O)N1CC[C@@](N[*:1])(C(=O)[*:2])C1; PyrS2 = (S)-3-amino-1-((pent-4-en-1-yloxy)carbonyl)pyrrolidine-3-carboxylic acid, C=CCCCOC(=O)N1CC[C@@](N[*:1])(C(=O)[*:2])C1; B5(12) = 2-amino-2-(pent-4-en-1-yl)hept-6-enoic acid (two olefin side chains), C=CCCCC(CCCC=C)(N[*:1])C(=O)[*:2]; B5(3) = 2,2-bis(4-pentenyl)glycine (stitching residue), C=CCCCC(CCCC=C)(N[*:1])C(=O)[*:2]; Bta = N[C@@H](Cc1csc2ccccc12)C(=O)O; αAllylPro = C=CC[C@@]1(C(=O)O)CCCN1; tBuAla = CC(C)(C)C[C@H](N)C(=O)O; 3Thi = N[C@@H](Cc1ccsc1)C(=O)O
PROPERTY NAME: pIC50

Ac-[αAllylPro]D[tBuAla][B5(12)]DNAAFN[PyrS2][3Thi][Bta]-NH2 (staple 1-4, 4-11) [I-857] | 4.51
Ac-[αAllylPro]D[tBuAla][B5(3)]DHAAFN[PyrS2″][3Thi][Bta]Q-NH2 (staple 1-4, 4-11) [I-864] | 4.40
